// data source = ChEMBL document CHEMBL1135834

- assay: Inhibition of catalytic subunit of protein kinase A (PKA) from bovine heart
- Design: species or system Bos taurus
outcome_measure: IC50

q: For the compound `Cn1sc(=O)n(Cc2ccccc2)c1=O` , give its reported IC50.
a: > 100 µM

----------
- experimental_system: Cyclin-dependent kinase 1/cyclin B (Homo sapiens, UniProt P06493)
- assay: Inhibition of Cyclin dependent kinase 1-cyclinB
outcome_measure: IC50

q: Report value only: IC50, Cyclin-dependent kinase 1/cyclin B (Homo sapiens, UniProt P06493), `Cn1sc(=O)n(Cc2ccccc2)c1=O`
a: > 100 µM
